Values were extracted from PubChem BioAssay (NCI).

- experiment: NCI Yeast Anticancer Drug Screen. Data for the bub3 strain (AID 167)
- assay-conditions: S. cerevisiae bub3 mutant strain, at 50.0 µM, stronger effect = higher value
About 79,000 compounds went through this panel and 15% of them were active in at least one assay; those are over-represented in the sample as a whole.
Classification field: enter rule met for growth inhibition values not below 90%, rule not met for values below it.

Observe how each entry below is paired with its result.
COc1ccc2c(c1)[n+]([O-])c(C(N)=O)c(N)[n+]2[O-]
rule met
COc1cc(C(=O)C=[N+]=[N-])c([N+](=O)[O-])c(OC)c1OC
rule met
Cc1ccc(C(CN(C)C)C(=O)c2ccccc2)cc1C (stereo not given)
rule not met

Dear colleague, could you confirm whether `CCCCCCCCCCC(=O)CC(=O)c1c(O)cccc1O` has growth inhibition at or above 90%?
rule not met

====

- experiment: NCI Yeast Anticancer Drug Screen. Data for the rad50 strain (AID 155);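 also: 0% = growth of vehicle-only cultures of the same strain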
- assay-conditions: S. cerevisiae rad50 strain growth inhibition; at 5.0 µM (retest, dose inferred, filed as 0.5)
- Protocol: Growth inhibition of yeast strains with defined genetic alterations is measured as a screen for potential anti-cancer activity. Selected strains with alterations in DNA damage repair or cell cycle control were exposed to compounds and growth inhibition was measured relative to vehicle treated controls. The strain used in this assay is rad50
Compounds without any hit were thinned out: in the full panel of roughly 79,000, 15% have a hit. Activity calls are given as the source filed them. Cut-off read from the data, not from the text of the source: active = growth inhibition above about 70%; inactive = the rest.
Pick from T (active), F (inactive) when you respond.

Observe how each entry below is paired with its result.
Cc1c(N)nc(C(CC(N)=O)NCC(N)C(N)=O)nc1C(=O)NC(C(=O)NC(C)C(O)C(C)C(=O)NC(C(=O)NCCc1nc(-c2nc(C(=O)NCCCNCCCc3ccccn3)cs2)cs1)C(C)O)C(OC1OC(CO)C(O)C(O)C1OC1OC(CO)C(O)C(OC(N)=O)C1O)c1cnc[nH]1 (stereo unspecified)
T
CC1=C(C(=O)OCCc2ccc([N+](=O)[O-])cc2)C(c2ccccc2[N+](=O)[O-])C(C(=O)OC(C)C)=C(C)N1 (stereo unspecified)
F
CCCN(CCC)CCNc1ccc(C)c2sc3ccccc3c(=O)c12
F
O=C(O)/C(Cl)=C(/Cl)C(=O)Nc1cccc(Cl)c1
F

Just curious, what result did `Cc1cc(Cl)nc2ccc(Cc3ccc4nc(Cl)cc(C)c4c3)cc12` get here?
F

Just curious, what result did `N#Cc1c2c(c(N=[N+]=[N-])n3c1nc1ccccc13)CCCC2` get here?
F

Just curious, what result did `Cc1ccc(C(C)C)c(O)c1N/N=C/c1cc(Cl)ccc1O` get here?
F

Just curious, what result did `CC(=O)Nc1ccc(N=C2c3ccccc3-c3ccc(NC(C)=O)cc32)cc1` get here?
F

Just curious, what result did `O=[N+]([O-])c1c(O)cccc1O` get here?
F

Just curious, what result did `CN(Cc1cc(C(C)(C)C)cc(Br)c1O)Cc1cc(C(C)(C)C)cc(Br)c1O` get here?
F

Just curious, what result did CC(c1ccc(OCc2ccccc2)cc1)c1cc2c(cc1OCCO)OCO2 (stereo unspecified) get here?
F

====

Assign growth inhibition to each entry below.
- experiment: NCI Yeast Anticancer Drug Screen. Data for the sgs1 mgt1 strain (AID 161);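 also: 0% = growth of cultures given vehicle only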
- assay-conditions: S. cerevisiae sgs1 mgt1 strain, at 50.0 µM, stronger effect = higher value
The panel holds about 79,000 compounds, 15% with a hit somewhere; the sample as a whole holds those more often.
Give bare numbers, in %.

For the 2 compounds below, give their growth inhibition values.
1. O=C1OCC/C1=C1/CCOC1
2. O=C1C2C3C=CC(C3)C2C(=O)C2C3C=CC(C3)C12 (stereo unspecified)

1. 50.3
2. 99

For the 8 compounds below, give their growth inhibition values.
1. O=C(NCCCl)Nc1c2ccccc2nc2ccccc12
2. O=C(CC(=O)c1ccccc1)CC(=O)c1cccc(Cl)c1
3. CCCCCCCCCCCC(=O)C(=O)c1ccc(O)cc1O
4. CC(CC(C)[C@H]1CCC2[C@H]3C(CC(=O)[C@@]21C)[C@@]1(C)CCC(O)C[C@H]1C[C@@H]3O)C(=O)O (stereo partly specified)
5. CCCCCCCCCCCCCCOS(=O)(=O)O
6. Cc1c(Cl)ccc(O)c1[N+](=O)[O-]
7. OC(c1ccccc1)c1cccc2ccccc12 (stereo unspecified)
8. COC(=O)C12OCC34C(CC5C(C)C6=CC(=O)OC6=CC5(C)C3C(O)C1O)OC(=O)C(OC(C)=O)C24 (stereo unspecified)

[24.5, 76.2, 96.4, 98.8, 99.6, 96.1, -1.85, 92.2]

If you can, please state the reported growth inhibition value of CC(C)C1=CC(=O)C2=C(CCC3C(C)(C(=O)O)CCC[C@]23C)C1=O (stereo partly specified) .
93.2

====

- experiment: NCI Yeast Anticancer Drug Screen. Data for the sgs1 mgt1 strain (AID 161);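 also: 0% = growth of cultures given vehicle only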
- assay-conditions: S. cerevisiae sgs1 mgt1 strain, at 5.0 µM (retest, dose inferred, filed as 0.5)
Compounds without any hit were thinned out: in the full panel of roughly 79,000, 15% have a hit. Activity calls are given as the source filed them. No stated cut-off is given here; in the data, active means growth inhibition above about 70%; inactive means the rest.
Pick from active, inactive when you respond.

Observe how each entry below is paired with its result.
CC(=O)Oc1cccc2c1C(=O)C(Br)(Br)CCC2
active
CC1(C)S[C@@H]2[C@H](N3C(=O)c4ccccc4C3=O)CN2[C@H]1NC(=O)N[C@@H]1N2C[C@@H](N3C(=O)c4ccccc4C3=O)[C@H]2SC1(C)C
inactive

Just curious, what result did `Cn1c(=O)c2c(O)c(-c3ccccc3)c(=O)n3c4ccccc4n(c1=O)c23` get here?
inactive

Just curious, what result did CC1CCC(C(C)(C)c2ccc(O)cc2)CC1 (stereo unspecified) get here?
inactive

Just curious, what result did `COc1ccc2c(c1)nc1ccc(Cl)cc1[n+]2C` get here?
inactive

Just curious, what result did `CCc1c(C(=O)OC)c(C(=O)OC)c(-c2ccccc2)n1CCn1c(CC)c(C(=O)OC)c(C(=O)OC)c1-c1ccccc1` get here?
inactive

====

- experiment: NCI Yeast Anticancer Drug Screen. Data for the cln2 rad14 strain (AID 165);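 also: 0% = growth equal to vehicle treated cultures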
- assay-conditions: S. cerevisiae cln2 rad14 strain, at 50.0 µM (retest, dose inferred, filed as 5.0), stronger effect = higher value
About 79,000 compounds went through this panel and 15% of them were active in at least one assay; those are over-represented in the sample as a whole.
Assign growth inhibition to each entry below.
One number for each entry, in %.

Would you please look over these solved cases?
O=C(Nc1ccccc1-c1nn(CN2CCNCC2)c(=S)n(CN2CCNCC2)c1=O)C(F)(F)F
10
COC(=O)C12OCC34C(CC5C(C)C6=CC(=O)OC6=CC5(C)C3C(O)C1O)OC(=O)C(OC(C)=O)C24 (centres undefined)
99
Cc1[nH]c(=O)[nH]c(=S)c1C(=O)NC1C2CCCCC2NC2CCCCC21 (centres undefined)
98
COC(=O)N/N=C(\c1ccc(O)cc1)C(C)C1(O)C(=O)Nc2ccccc21 (centres undefined)
23
Cc1ccc(/C=C2\CCCC(CN3CCCCC3)C2=O)cc1 (centres undefined)
98
COC1=C(NC(C)=O)C(=O)c2nc(-c3nc(C(=O)O)c(C)c(-c4ccc(OC)c(OC)c4O)c3N)ccc2C1=O
90
O=C(/C=C/c1ccc(Cl)c(Cl)c1)CCN1CCN(CCC(=O)/C=C/c2ccc(Cl)c(Cl)c2)CC1
99
Nc1c2c(=O)[nH]c(=O)c2c(N)c2c(=O)c3ccccc3c(=O)c12
41

If you can, please state the reported growth inhibition value of CC(NNC(=S)N1CCCCCC1)c1cc2ccccc2cn1 (centres undefined) .
91

====

Assign growth inhibition to each entry below.
- experiment: NCI Yeast Anticancer Drug Screen. Data for the mec2-1 strain (AID 157)
- assay-conditions: S. cerevisiae mec2-1 strain, at 50.0 µM (retest, dose inferred, filed as 5.0), stronger effect = higher value
Compounds without any hit were thinned out: in the full panel of roughly 79,000, 15% have a hit.
Numbers only, in %.

Would you please look over these solved cases?
Cc1c(C(C)(C)C)cc(C(C)(C)C)c(O)c1CN(C)Cc1c(C)c(C(C)(C)C)cc(C(C)(C)C)c1O
3
N#CC1(C#N)C(C#N)(C#N)C12CCC2
88
CCc1cccc(CC)c1Nc1nc2c(s1)C(=O)c1ccccc1C2=O
99
O=C(O/N=C(/Cc1ccccc1)c1ccccc1)c1ccccc1
72
Cc1ccc(Oc2ccc(C(=O)C(CN(C)C)CN(C)C)cc2)cc1
96
C/C(=N\NC(N)=S)c1ccc(Oc2ccccc2)cc1
75
Cc1ccc2c(c1C)-c1c(ccc(C)c1C)C(=O)C2=O
99
ClCc1ccccc1Cc1ccccc1
63

For the 7 compounds below, give their growth inhibition values.
1. C/C(=N/NC(=S)Nc1cccc(C)c1)c1ccccn1
2. Oc1cc(C(c2ccccc2)c2ccccc2)c2ccccc2c1O
3. O=Cc1ccc(-c2nccc3c2[nH]c2ccccc23)o1
4. CCCCN(CCCC)CC(O)c1cc(-c2ccc(Cl)cc2)nc2c(Cl)cccc12 (stereo not drawn)
5. Cc1noc(NS(=O)(=O)c2ccc(NCc3c4ccccc4nc4cc(Cl)ccc34)cc2)c1C
6. NC(=O)c1cccn1Cc1ccccc1SSc1ccccc1Cn1cccc1C(N)=O
7. CC(C)C1=CC23CCC4C(C)(C(=O)O)CCCC4(C)C2CC1C1C(=O)C=CC(=O)C13 (stereo not drawn)

99
8
17
1
-7
99
97

For the 3 compounds below, give their growth inhibition values.
1. CCOC(=O)C1=C(c2ccccc2)N(C)c2ccccc2S1
2. CCCOc1cc(C(=O)OCCN(CC)CC)cc(OCCC)c1OCCC
3. O=C1/C(=C\c2ccccc2)CCC/C1=C\O

[92, 19, -40]

For the 4 compounds below, give their growth inhibition values.
1. CSC(=S)/C(=C/Nc1ncccn1)c1ccccc1
2. O=[N+]([O-])c1ccc(NC(=S)N/N=C(\c2ccccc2)c2ccccn2)cc1
3. CCCCCCCCCCCCCCCC(=O)NCC[N+](C)(CC)CC
4. CC(C(O)Cc1ccccc1)N(C)N=Nc1ccc([N+](=O)[O-])cc1 (stereo not drawn)

1. 99
2. 79
3. -11
4. 59

If you can, please state the reported growth inhibition value of COc1cc(OC)c(C(c2cc3c(cc2O)OCO3)N2CCOCC2)c(OC)c1 (stereo not drawn) .
98
